Hey, just so you know, these numbers are from patent US20260242478A1.

Target: T1, Anti-PSMA Fab (biotinylated (site not stated))
T1 construct: The biotinylated PSMA Fab was captured on neutravidin coated plates for the phage ELISA; also called 006 PSMA Fab
Assay: phage ELISA; captured anti-PSMA Fab pre-incubated with PSMA antigen as competitor
Please enter YES where Phage binding ELISA signal, Anti-PSMA Fab with PSMA antigen is greater than or equal to 0.1, and NO where it is lower.

Quick check: does FEMLCKPAWMCSGF (It was tested as crude clonal phage supernatant; also called Peptide-180 library clone) [Phage-2976] have Phage binding ELISA signal, Anti-PSMA Fab with PSMA antigen greater than or equal to 0.1?
NO

Quick check: does DDRMCIPSWMCSGL (It was tested as crude clonal phage supernatant; also called Peptide-180 library clone) [Phage-2981] have Phage binding ELISA signal, Anti-PSMA Fab with PSMA antigen greater than or equal to 0.1?
NO

Quick check: does TVVMCKPSWMCEGF (It was tested as crude clonal phage supernatant; also called Peptide-180 library clone) [Phage-2989] have Phage binding ELISA signal, Anti-PSMA Fab with PSMA antigen greater than or equal to 0.1?
NO

Quick check: does AGIRCVPEWMCLGF (It was tested as crude clonal phage supernatant; also called Peptide-180 library clone) [Phage-2984] have Phage binding ELISA signal, Anti-PSMA Fab with PSMA antigen greater than or equal to 0.1?
NO

Quick check: does SEIACRPAWMCQWL (It was tested as crude clonal phage supernatant; also called Peptide-180 library clone) [Phage-2979] have Phage binding ELISA signal, Anti-PSMA Fab with PSMA antigen greater than or equal to 0.1?
YES

Quick check: does FGYACIPNWMCTVF (It was tested as crude clonal phage supernatant; also called Peptide-180 library clone) [Phage-2978] have Phage binding ELISA signal, Anti-PSMA Fab with PSMA antigen greater than or equal to 0.1?
YES

Quick check: does TELRCVPSWMCTGF (It was tested as crude clonal phage supernatant; also called Peptide-180 library clone) [Phage-2977] have Phage binding ELISA signal, Anti-PSMA Fab with PSMA antigen greater than or equal to 0.1?
NO

Quick check: does EEVYCVPKWMCLGF (It was tested as crude clonal phage supernatant; also called Peptide-180 library clone) [Phage-2985] have Phage binding ELISA signal, Anti-PSMA Fab with PSMA antigen greater than or equal to 0.1?
NO

Quick check: does VEHWCRPEWMCAGF (It was tested as crude clonal phage supernatant; also called Peptide-180 library clone) [Phage-2980] have Phage binding ELISA signal, Anti-PSMA Fab with PSMA antigen greater than or equal to 0.1?
NO

Quick check: does SQPMCIPVWMCRGF (It was tested as crude clonal phage supernatant; also called Peptide-180 library clone) [Phage-2986] have Phage binding ELISA signal, Anti-PSMA Fab with PSMA antigen greater than or equal to 0.1?
YES

Quick check: does PMHACIPMWMCAGF (It was tested as crude clonal phage supernatant; also called Peptide-180 library clone) [Phage-2982] have Phage binding ELISA signal, Anti-PSMA Fab with PSMA antigen greater than or equal to 0.1?
YES

Quick check: does FTAYCKPAWMCQGL (It was tested as crude clonal phage supernatant; also called Peptide-180 library clone) [Phage-2988] have Phage binding ELISA signal, Anti-PSMA Fab with PSMA antigen greater than or equal to 0.1?
NO

Quick check: does LLVRCQPEWMCVGF (It was tested as crude clonal phage supernatant; also called Peptide-180 library clone) [Phage-2987] have Phage binding ELISA signal, Anti-PSMA Fab with PSMA antigen greater than or equal to 0.1?
YES

Quick check: does PERMCRPLWMCEGF (It was tested as crude clonal phage supernatant; also called Peptide-180 library clone) [Phage-2983] have Phage binding ELISA signal, Anti-PSMA Fab with PSMA antigen greater than or equal to 0.1?
YES
